Measured IC50 (log10 M) values are reported for all entries that follow.
# Test system: EOL-1
# protocol_notes: IC50 (cell viability) (log10 M)
# condition_info: 4 days
Counter-ions that a name gives are not always drawn.
# output: bare number, no unit

As a guide, the following entries are already answered.
{"molecule": "O=C(NOC[C@H](O)CO)c1ccc(F)c(F)c1Nc1ccc(I)cc1F", "IC50 (log10 M)": -7.9}
{"molecule": "NC(=O)c1ccc(-c2nc(-c3ccccn3)c(-c3ccc4c(c3)OCO4)[nH]2)cc1", "IC50 (log10 M)": -5.08}
{"molecule": "O=C(CCCCCCC(=O)Nc1ccccc1)NO [Vorinostat]", "IC50 (log10 M)": -6.51}
{"molecule": "CC(C)C[C@@H](C=O)NC(=O)[C@H](CC(C)C)NC(=O)[C@H](CC(C)C)NC(=O)OCc1ccccc1 [MG132]", "IC50 (log10 M)": -7.15}
{"molecule": "CCc1c2c(nc3ccc(OC(=O)N4CCC(N5CCCCC5)CC4)cc13)-c1cc3c(c(=O)n1C2)COC(=O)[C@]3(O)CC [Irinotecan HCl]", "IC50 (log10 M)": -6.09}
{"molecule": "Nc1nc(F)nc2c1ncn2[C@@H]1O[C@H](CO)[C@@H](O)[C@@H]1O [Fludarabine]", "IC50 (log10 M)": -5.77}
{"molecule": "Cc1nc(Nc2ncc(C(=O)Nc3c(C)cccc3Cl)s2)cc(N2CCN(CCO)CC2)n1 [Dasatinib]", "IC50 (log10 M)": -7.46}
{"molecule": "COc1cc(Nc2c(C#N)cnc3cc(OCCCN4CCN(C)CC4)c(OC)cc23)c(Cl)cc1Cl [SKI-606]", "IC50 (log10 M)": -6.64}

In: Specify reported IC50 (log10 M) for the molecule shown: COc1cc(N2CCC(N3CCN(C)CC3)CC2)ccc1Nc1ncc(Cl)c(Nc2ccccc2S(=O)(=O)C(C)C)n1 [NVP-TAE-684]
Out: -5.97

In: Note IC50 (log10 M) for the molecule shown: CC1=C(/C=C/C(C)=C/C=C/C(C)=C/C(=O)O)C(C)(C)CCC1 [Tretinoin]
Out: -8.11

In: Answer with reported IC50 (log10 M) of Nc1nc(Cl)nc2c1ncn2[C@@H]1O[C@H](CO)[C@@H](O)[C@@H]1F [Clofarabine]
Out: -7.52

In: Supply measured IC50 (log10 M) of `COc1ccc(-c2cc3c(C)nc(N)nc3n([C@H]3CC[C@H](OCCO)CC3)c2=O)cn1` in your reply.
Out: -7.09
